Target: T1, Bcl-2, P10415
T1 chain: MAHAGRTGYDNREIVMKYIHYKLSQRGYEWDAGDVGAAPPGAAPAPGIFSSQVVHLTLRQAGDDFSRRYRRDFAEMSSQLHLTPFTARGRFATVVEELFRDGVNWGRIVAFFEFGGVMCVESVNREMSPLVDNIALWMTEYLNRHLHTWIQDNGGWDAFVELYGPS
Experiment: fluorescence polarisation, direct titration of receptor into 10 nM labelled peptide
measure: Kd (nM)
One number for each entry, in nM.

Below, 3 binders whose answers are already recorded.
TDENKKVGLALKDLAKQYSDRLECCE [NUB1] | 562
AELRLFLAQRLRWLCDSCPASRATCV [NBEAL2] | 16
TRRSMVFARHLREVGDEFRSRHLNST [POFUT2] | 98

Batch of 2 binders: report Kd for each.
1. FERVEQMCIQIKEVGDRVNYIKRSLQ [TRPM7]
2. DAIIQMIVELLKRVGDQWEEEQSLAS [c6orf222]

1: 124; 2: 0.3
